Hey, just so you know, these numbers are from ChEMBL document CHEMBL4422646.

Test system: HCT-116
method.notes: Antiproliferative activity against human HCT116 cells after 48 hrs by Hoechst 33342 staining-based assay
Type: functional, cell-based
study.conditions: HCT-116, 48 h
measure.name: IC50

Examples with their reported IC50 follow.
CCCCOc1ccc(-c2cccc(C#N)c2)nn1; > 25 µM
CCN(CC)c1ccc(-c2cccc(C#N)c2)nn1; > 25 µM

Let us move to another entry and its IC50.
Incoming: Need IC50, item "COc1ccc(-c2ccc(N3CCOCC3)nn2)cc1"
Outgoing: > 25 µM
